Origin of measurements: the Deep4Chem optical property database

Assay: solvent given as SMILES
Conditions: in C1COCCO1
Param label: returns Fulfilled when emission maximum < 400 nm, returns Not fulfilled otherwise, including exact equality.

• COc1ccc(/C=C/C=C/C=C/c2ccc([N+](=O)[O-])cc2)cc1 = Not fulfilled
• c1ccc2c(c1)[nH]c1cccnc12 = Fulfilled
• COC(=O)c1ccc(/C=C2\N=C(c3ccc(OC)c(OC)c3)OC2=O)cc1 = Not fulfilled
• COC(=O)c1ccc(C#Cc2ccc(N(C)C)cc2)cc1 = Not fulfilled

----------
Assay: solvent given as SMILES
Details: in CN(C)C=O
MEASURED QUANTITY: emission maximum (nm)

• CC1(C)Nc2cc(Cl)ccc2-c2[nH]c3ccccc3c(=O)c21 = 493
• CCCCCCCCCCCCN1C(=O)c2ccc3c4ccc5c6c(ccc(c7ccc(c2c37)C1=O)c64)C(=O)NC5=O = 535
• c1ccc(-c2oc(-c3ccccc3)c3ccccc23)cc1 = 458
• CN(C)c1ccc(/C=C/C(=O)c2ccc(Cl)cc2)cc1 = 542
• CCCCCCCCCCCCN1C(=O)c2ccc3c4ccc5c6c(ccc(c7ccc(c2c37)C1=O)c64)C(=O)N(CCCCCCCCCCCC)C5=O = 536
• Cc1c2oc3c(C)c(N)cc(C(=O)NC4OC(=O)C(C(C)C)N(C)C(=O)CN(C)C(=O)C5CCCN5C(=O)C(C(C)C)NC4=O)c3nc-2c(C(=O)NC2OC(=O)C(C(C)C)N(C)C(=O)CN(C)C(=O)C3CCCN3C(=O)C(C(C)C)NC2=O)c(N)c1=O (centres undefined) = 640.78
• CC1(C)CCc2c(c3ccccc3c3nc4ccccc4nc23)O1 = 501
• NS(=O)(=O)c1ccc(N2N=C(c3ccc(O)cc3)CC2c2ccc(Cl)cc2)cc1 (centres undefined) = 422
• Nc1ccc(-c2ccc(N)cc2)cc1 = 403
